Kindly state % Remaining in Solution for each of the entries shown.
TEST_NAME: Partition of avermectins between aqueous acetone and Duolite ES-863 resin (HPLC of supernatant before and after equilibration)
PROTOCOL_CONDITIONS: 60.0% acetone (vol); 4 ml supernatant, 1 g ES-863 resin, equilibrated for an hour

Worked set:
* COC1CC(OC2C(C)OC(OC3C(C)=CCC4CC(CC5(C=CC(C)C(C(C)C)O5)O4)OC(=O)C4C=C(C)C(O)C5OCC(=CC=CC3C)C45O)CC2OC)OC(C)C1O (stereo not drawn) | 1.53%
* CCC(C)C1OC2(CC3CC(CC=C(C)C(OC4CC(OC)C(OC5CC(OC)C(O)C(C)O5)C(C)O4)C(C)C=CC=C4COC5C(O)C(C)=CC(C(=O)O3)C45O)O2)CC(O)C1C (stereo not drawn) | 4.95%

# evaluate next
Measured % Remaining in Solution of COC1CC(OC2C(C)OC(OC3C(C)=CCC4CC(CC5(CC(O)C(C)C(C(C)C)O5)O4)OC(=O)C4C=C(C)C(OC)C5OCC(=CC=CC3C)C45O)CC2OC)OC(C)C1O (stereo not drawn) : 0.3%
